# System: Plasmodium berghei
# measurement_notes: Luciferase/luciferin-expressing antifolate-resistant parasites were used to infect a culture of HepG2 cells that were pre-incubated with compounds. Infected hepatocytes emit light due to the luciferase reaction. Assay results are presented as the percent inhibition of light emission compared to control. […]
# Type: functional
# experimental_setup: sporozoite, HEPG2TOX_HILL_SLOPE 0.105, HEPG2TOX_R_SQUARED 0.052, read-out: LUCIFERASE INFECTION ASSAY - IC50
metric_name: IC50

| given_smiles | result |
| --- | --- |
| Cc1cccc(Nc2ccccc2C(=O)Oc2ccc(Cl)cc2Cc2ccccc2)c1C | > 10 µM |

* * *

# Tested on: Plasmodium berghei
# measurement_notes: Luciferase/luciferin-expressing antifolate-resistant parasites were used to infect a culture of HepG2 cells that were pre-incubated with compounds. Infected hepatocytes emit light due to the luciferase reaction. Assay results are presented as the percent inhibition of light emission compared to control. […]
# Format: functional
# experimental_setup: sporozoite, PBLUC_HILL_SLOPE 11.9, PBLUC_R_SQUARED 0.175, read-out: LUCIFERASE INFECTION ASSAY - IC50
pIC50: −log10 of the molar value.

| given_smiles | pIC50 |
| --- | --- |
| CC(C)(C)c1ccc(-c2n[nH]c(NC(=O)c3ccccc3Cl)c2Br)cc1 | 5.15 |

* * *

# System: Plasmodium berghei
# measurement_notes: Luciferase/luciferin-expressing antifolate-resistant parasites were used to infect a culture of HepG2 cells that were pre-incubated with compounds. Infected hepatocytes emit light due to the luciferase reaction. Assay results are presented as the percent inhibition of light emission compared to control. […]
# Format: functional
# experimental_setup: sporozoite, FFLUC_HILL_SLOPE 0.23, FFLUC_R_SQUARED 0.0771, read-out: LUCIFERASE INFECTION ASSAY - IC50

| given_smiles | assayed_target | IC50 |
| --- | --- | --- |
| COc1ccc(N(CCC(N)=O)C(=O)CSc2nc3ccccc3n2-c2ccc(OC)cc2)cc1 | Plasmodium berghei | > 10 µM |

* * *

# Test system: Plasmodium berghei
# measurement_notes: Luciferase/luciferin-expressing antifolate-resistant parasites were used to infect a culture of HepG2 cells that were pre-incubated with compounds. Infected hepatocytes emit light due to the luciferase reaction. Assay results are presented as the percent inhibition of light emission compared to control. […]
# Format: functional
# experimental_setup: sporozoite, HEPG2TOX_HILL_SLOPE 0.638, HEPG2TOX_R_SQUARED 0.943, PBLUC_HILL_SLOPE 2.45, PBLUC_R_SQUARED 0.694, read-out: LUCIFERASE INFECTION ASSAY - IC50

| given_smiles | unit_tag | IC50 |
| --- | --- | --- |
| CC(C)NS(=O)(=O)c1cccc(CNc2ncnc3ccccc23)c1 | nM | 954 |

* * *

# Test system: Plasmodium berghei
# measurement_notes: Luciferase/luciferin-expressing antifolate-resistant parasites were used to infect a culture of HepG2 cells that were pre-incubated with compounds. Infected hepatocytes emit light due to the luciferase reaction. Assay results are presented as the percent inhibition of light emission compared to control. […]
# Format: functional
# experimental_setup: sporozoite, FFLUC_HILL_SLOPE 13.4, FFLUC_R_SQUARED 0.472, read-out: LUCIFERASE INFECTION ASSAY - IC50

| given_smiles | IC50 |
| --- | --- |
| CC(C)CNc1nn2c(-c3cccc(C(=O)N(C)C)c3)cnc2s1 | > 9.61 µM |

Taken from ChEMBL document CHEMBL4483862.
